assay: Phase 1 single ascending dose (Part A) pharmacokinetics, fasted state; format: in vivo, human; conditions: human, plasma, oral, 400 mg single dose (A4)

# COMPOUND STRUCTURE, AUC(0-t) / ng·h/mL
data = [
    ("Cn1cc(-c2cn(-c3ccc(OC(F)(F)F)cc3)c(=O)c3ncn(C)c23)cn1", 53800),
]

----------
test: Phase 1 Part A food effect (high-fat / low-fat breakfast) on single-dose pharmacokinetics; format: in vivo, human; conditions: human, plasma, oral, 800 mg, 800 mg single dose (A5), Fed, Low-fat; read-out: AUC0-t

# COMPOUND STRUCTURE, UNIT DESCRIPTOR, AUC(0-t)
rows = [
    ("Cn1cc(-c2cn(-c3ccc(OC(F)(F)F)cc3)c(=O)c3ncn(C)c23)cn1", "µg·h/mL", 159),
]
